test_name: Animal PK study in mouse via i.v., p.o. and s.c. administration
Assay type: in vivo
conditions: i.v.
observation_type: PK CLiv (mL/min/kg)
One number for each entry, in mL/min/kg.

Some molecules with recorded PK CLiv:
molecule	meas_value
C[C@H](NC(=O)Nc1ccc(S(=O)(=O)Nc2ccc(CC(C)(C)N(C)C)cc2)cc1)c1cccc(Cl)c1Cl	39
COc1ccc([C@H](C)NC(=O)Nc2ccc(S(=O)(=O)Nc3ccc4c(c3)CCNC4)cc2)c(Cl)c1Cl.Cl	7.33
CC(NC(=O)Nc1ccc(S(=O)(=O)Cc2ccc3c(c2)CN(C)C3)cc1)c1ccccc1 (centres unmarked)	60.2
C[C@H](NC(=O)Nc1ccc(S(=O)(=O)Cc2ccc(CO)cc2)cc1)c1cccc(Cl)c1Cl	68.8
CC(C)(N)Cc1ccc(NS(=O)(=O)c2ccc(NC(=O)NCc3ccccc3)cc2)cc1.Cl	35.8
C[C@H](NC(=O)Nc1ccc(S(=O)(=O)Cc2ccc3c(c2)CCNC3)cc1)c1cccc(Cl)c1Cl	11.8

Provide PK CLiv for all items below, preserving their order.
1. C[C@H](NC(=O)Nc1ccc(S(=O)(=O)Nc2ccc(CC(C)(C)N)cc2)cc1)c1ccc(-c2cnccn2)c(Cl)c1Cl
2. Cl.O=C(NCc1cccc(Cl)c1Cl)Nc1ccc(S(=O)(=O)Cc2ccc3c(c2)CNC3)cc1

Output:
[3, 26.2]
